assay: label from the status in PepcDB records

{"sequence_string": "MRQPPILSEALRLFFPLAALHGAVWPFLWIVIGGYALPFANAVPPSQWHAHEMIFGTYGMALAGFLGSAVPEWTDTKAAAGRTLLCLAGLWLPGRLIGFVGADTWSLLAGFFDLAFLLALSVLIGKAMLVRRTTKHLAFLVWLILFAAAETGVRYAWWMGDLEFAVRCLEAALCIFIVLFSLSAARINVVVINLALDPSGETTPYRPHPGRQHMAGAMVTLYMAAKLLFPESDVCAWLALAAGAAFFDRLAEWFIGRAVFRTEVLLLALGNAFAGAGFLALGATRLGFSVTSAAGLHLLSVGALGCAIMAVFIIAGLRHTGRDLKHLPWQAHAAAALMVMAGLTRILPEFDVAAVLSPYHHGLSAILWAASFGIWLQGFLPFMRAPGTDEAGACG", "protein production": "failed"}
{"sequence_string": "MMKRVNSHGSDYWRKNGCDFTDHRAFAPVKILDVAQIKENPMSEQIELIRLAIFFSVLVICALWESNRPRKTLSQSKRVRWLNNLGLVGFNSLLITALMPILAFSAAQWAQSQQFGLLYWLEIPPFIALFVAVVLLDAVIYWQHLLFHRIPLLWRLHRMHHADQDIDVTTGSRFHPLEIMISAWIKIGAVTLLGASPLAVVVFEILLNASAMFNHSNAKLPYKIDQWLRLLVVTPDMHRVHHSVLVHETHSNFGFFLSIWDKMFHTYIAQPEMGHERMKIGLPLFRQAREQWLDKMLTQPFRER", "protein production": "failed"}

* * *

assay: label from the status in PepcDB records
observed_property: protein production

{"sequence_string": "MEVGMIPRVYLGHEWFGAERILSEYQVPEDCGAQVLFLGIPRNAPEDGGNIEALEYEAYPEMAIKEMEKIRQETIEKFGVKEVFIHHRLGLVKIGEPSFLVLAVGGHREETFKACRYAVDETKKRVPIWKKEIFKEGKGEWVLGEKKNASGQTK", "recorded_value": "not failed"}
{"sequence_string": "AVEARQSATEAERRRHRLEQILKTVPSCVVQLDRDGQFVFANQRAIDVLGLSQSELKDRLYNDPEWEIRDLDGHPIPDAELPFRQVLETGQPLSDARHTIHWPDGTEKVLSVNGAPLFDDDGAVESVVCTLTDIT", "recorded_value": "not failed"}
{"sequence_string": "PSVQVPQSTILYASDGSKLGETNYGEKRYWVPLKDMNPTIVKATVAIEDQNFYDHHGFDYKRMAGAALADLKAFAKVQGASTITQQYARNLYLEHDKTWKRKWNEAFYTIRLEQNYSKDEILEGYLNTIYYGHGAYGIEAASRLYFGKHAKNLTDAEAALLAGIPKGPSGY", "recorded_value": "failed"}
{"sequence_string": "MLELRPARAADVPAIAAMHAASWRASYRGILPDDYLDRYAADERLSLWRRRFETASPPWVRLACWDGEPVGFVCLLPEEAPELGVYLDNLHVLPGQQGRGIGRALMAAAAAEAERIAPGRPLYLWVYERNADACAAYDKMGGVVMARREVDTAAGTRAIALRYSWP", "recorded_value": "failed"}

* * *

experiment: label from the status in PepcDB records
observed_property: protein production

{"sequence_string": "MAALRYAGLDDTDSEDELPPGWEERTTKDGWVYYANHTEEKTQWEHPKTGKRKRVAGDLPYGWEQETDENGQVFFVDHINKRTTYLDPRLAFTVDDNPTKPTTRQRYDGSTTAMEILQGRDFTGKVVVVTGANSGIGFETAKSFALHGAHVILACRNMARASEAVSRILEEWQQGAATTVYCAAVPELEGLGGMYFNNCCRCMPSPEAQSEETARTLWALSERLIQERLGSQSG", "recorded_value": "not failed"}
{"sequence_string": "MNLTRLREKILNKSHSAMLIFSDINISYLSTFTGHAATILLTSKGNYLLTDYRYFEQAKTQASHFNVICRDRANQSLASLIEDLLFQDDCQSLSFESEHISVMQWQQIHQQISQLTKLSQIEAVSGAVEALRFIKSTSEISSIEQAAKIADTALAAMLNSVKAGVTERELAIELDYQMAKLGSEEVSFATILLFGERSALPHGIPSDKQLKLGDIILIDFGAVVNGYRSDMTRTFVFGQASAEQKHIYQLVQSAQQAAIDAVYEGVLGSHLYQQSANILLNSEYKKYAGEGLGHGVGLVLHEQPFIGPDCHTTIEKGCVITIEPGIYIPGWGGIRIEDDVVLTDEGLKILTKSPKGLIEL", "recorded_value": "failed"}
{"sequence_string": "MKMEELFKKHKIVAVLRANSVEEAKEKALAVFEGGVHLIEITFTVPDADTVIKELSFLKEKGAIIGAGTVTSVEQCRKAVESGAEFIVSPHLDEEISQFCKEKGVFYMPGVMTPTELVKAMKLGHTILKLFPGEVVGPQFVKAMKGPFPNVKFVPTGGVNLDNVCEWFKAGVLAVGVGSALVKGTPDEVREKAKAFVEKIRGCTE", "recorded_value": "not failed"}
{"sequence_string": "MSQWTTVCKLDDILPGTGVCALVEQQQIAVFRPRNDEQVYAISNIDPFAQASVLSRGIVAEHQDDLWVASPLKKQHFRLYDGFCLEDGAYSVAAYDTQVTNGNVQISIADSDVAVDNSQPLPLEHHHHHH", "recorded_value": "not failed"}
{"sequence_string": "MIGLNTAAIYVLQTLGSLYLLIILLRFVLQLVRANFYNPLCQFIVRATQPLLKPLRRIIPSLFGLDMSSLVLAIIVQMILMALTLLLMFGTTGDPLHLLLWSIIGVTALFLKIFFFALIISVILSWVAPGSHNPGAELVNQICEPALAPFRKIVPNLGGLDISPILAFLVLKLLDMLVINNLAAMSNMPDVLRLLM", "recorded_value": "failed"}

Prompt: What value of protein production has been reported for the following sequence? HTETGNIWTHLLGFVLFLFLGILTMLRPNMYFMAPLQEKVVFGMFFLGAVLCLSFSWLFHTVYCHSEKVSRTFSKLDYSGIALLIMGSFVPWLYYSFYCSPQPRLIYLSIVCVLGISAIIVAQWDRFATPKHRQTRAGVFLGLGLSGVVPTMHFTIAEGFVKATTVGQMGWFFLMAVMYITGAGLYAARIPERFFPGKFDIWFQSHQIFHVLVVAAAFVHFYGVSNLQEFRYGLEGGCTDDTLL
Completion: failed

* * *

assay: label from the status in PepcDB records

{"sequence_string": "MGSQGGIVSIDAKIDASVMIGKDAVVFPDANIAERACIAEKVCIGNAVRIGKHAMIDHGASIGDRSNIGERSRIYQDSFIGENAVIAARACIGEKVYIGNFVSLAKDSIIDDGVNIGERSSIGERTRIRQGSFIRKGCVIRQRSVIAKRAYIDEGVYIGNVVRILEHHHHHH", "protein production": "failed"}
{"sequence_string": "MAEQHGDSPVPVELSVVGGFLIAVIVGMLFPADAMTRWMFHPAVVAGCCWAGQLWYVGRKLSVPPAAGNPWRYIFGMANTVTLLRGGLYAVVAGFLVVPATTDLAWVPAACYGVGVVLDKLDGTVARTVGEQTQLGTRLDMAFDTFGFVVAPLVAVFWGQLPVLYLSLSAARYAYVGGIRWRRYRDRPVFERPDSNLGKYLAGVQMVFITAALVPVVPTELVFRLTPVVLAPSLAVFLRDFLVASGRLPREWFDRQR", "protein production": "failed"}
{"sequence_string": "MMSYDAETGIAKVKCQSQSTCGACSARETCGTESLSELNGKRGEHIFTLETITPLRTDQMVEIGLEEKSMLFSALLMYIVQLFTLLVATLLSSYISENELIRAILIFMLTALSFVMVKRYTRKLGQQTEFQSVLLRVLF", "protein production": "failed"}

* * *

test: label from the status in PepcDB records
observed_property: protein production

Some solved entries appear below for comparison.
{"sequence_string": "MVERLLEIIERSLRKCPWLEKQSIETLLEALASEIEEVAEAVKKNDLANLEEEIGDLIYDALLVAAVAQRDYGIDLESAIQKVVEKISHRKPWLFWEEKISLEEAEKIWKERKKKI", "protein production": "not failed"}
{"sequence_string": "MLKTILSISGKPGLFKLVSHGKNMLIVESLADKKRVPAYAKDKVISLGDIAIYTNEAEVPLHEVLTNVKNKENGQQASVSTSAKPDELRAYFAEILPNFDRERVYPSDIKKLISWYNILIGAGLTEFTPEGSATEEASVKETKKEEA", "protein production": "failed"}
{"sequence_string": "MATPAYMSITGTKQGLITAGAFTADSVGNTYQEGHEDQVMVQGFSHELIIPRDPQSGQPTGQRVHKPVKITKVFDKSSPLLLAALTSGERLTEITIQWYRTSAAGTQEHYYTTKLEDAIIVDIKDYMHNCQDPANAHFTHLEDVEFTYRKITWTHEVSGTSGSDDWRSPVAG", "protein production": "not failed"}
{"sequence_string": "MPAKDVQICPIAVDTTVFRSRTWDRLKFEIEYGLQRGTTANSYLISADKIALFDPPGESFTDNFVGTLIQRLDLNSLDYVILGHVNANRAHTLKLLLSLAPQATIICSNPAAQNLEKLLADAEVNNPIQVMKGNDHLDLGRGHELTFIPTPSPRYPGQLCTYDPRTEILFTDKLFGAHVCGDQVFDEGWTIYQEDRRYYFDCLLAPAAAQVSAALNKLEAYPAQTYAPSHGPLVRYGLRELTRNYQQWLSEQQAQALEHHHHHH", "protein production": "failed"}
{"sequence_string": "MGLKQTLKEIYYIVADKRLLYFSLSLGISTFAYSLLTYYFPIIMTNLDITTFTIGIIYSIISFLYVVFNIPLGAIVDKIGSKNAVTLSALMAVPLFLLMGTLNPLLFIISLVIFESVIRIVNSLGAHRFMLNYTNAGKAFGVFSLITSILAAIGIMLGGYLLQHSVSTLLFTIIAVLFGISGIIRFLELPKDENKVEVKRSLRLGFKYLKEDKKLLLYLLVSILSSGLSLETYYVTIYFVKDLLLPLTFVGVLYSSYALIMAFLPLLFSVILSKRSNFKNLSILIFSNSVIFFLVPLFTNVYILFLLFYAWTVIVAMESIVDYNVAQSVTKPEIRGTQVALISTFVRIFSVFYNAIVGLLFQITPLYSFYFTGFLGILAIFTIKFAEFIGVLK", "protein production": "failed"}
{"sequence_string": "MLKEKAGVIAGTIWNALNETEGMTAKQLKKATKLVDKDLFLGLGWLLREDKVSVEEVEGELFIKLI", "protein production": "failed"}
{"sequence_string": "KGESYKGKVAVASVVLNRTEKKGFPDTIRGVIYQKNAFEPVANGSINQKPDKESIEAAEEALSSKNRETDAIFFYNPKTASDNWIRSRKIVEKIGRHVFAV", "protein production": "not failed"}
{"sequence_string": "MEILHFSPSSSISTIIHRPRRKIMALRDSIKTQMNLITTESVSSFRFCPCGRRHFIGAAMTSMPFLPISPSHASTSTEDLKRLRPPKPDWYEEFFAWSMNSEVESYEKEVSDYKMKLFDNLVGKAEKVLEIGIGTGPNFKYYTDIPNVSVIGIDPNAKMESYARKSATEAGLKPEEFTFVHALGESIPLEDASVDAVVGTLVLCSVTDVTQTLKEIKRILRPGGIYIFIEHVAAEDGTFLRLVQTVLDPLQQVVADGCHLTRHTGESILEARFNGGADVKKTSLSRLAYISSHVYGVAYN", "protein production": "failed"}
{"sequence_string": "MQGVLLALVPMFAWGSIGFVANKFGGDAKQQTLGMTLGAFVFALIVFLFRMPTLTWQIFLIGFIGGLLWAIGQFGQFNSMKYMGVSVASPLSSGSQLVIGGLIGVFAFHEWTKQIQFILGFIAMAVLVVGFYFSAKRDPENAVVEEGRNYTKGLTALTYSTLGYVIYVILFNNLAVLWFNVHFDTLTIILPMSVGMIFGALVMGRFKIKMEKYVYQNMIVGAMWGVGNIFMLMAASAAGNAIAFSFSQLGVIVSTIGGILFLGEKKTKKELVYVGIGIVLFVTGAILLAIVKSKG", "protein production": "failed"}
{"sequence_string": "MASTAVSELVFFIVTLLITASAVAVLSDQTIHIVYGMQSSSQRTTDMIQENFAIINNPDQIPYDNGYVFYIKNTGSVGFAFDNTSISVLVDGSAVTGKYVKFISLENSSILVPGQVGEIVVNETLSGYNSITISLGTGVSHTFNFEV", "protein production": "failed"}

Dear colleague, could you send me protein production for each of the items below? Thanks.
1. MRRSAYMTDTKICKKGCDHDTSHRENEQRCGRGSFWMHDPDLIFSELKLKAGEFFLDMGCGPGDYSIWASKIVGNSGMVYALDKWQELIDNLTEKADLEGIKNIKGMVSDIARPLPIEESCIDVYFISTVLHSLDLAKDSDVIFSEIHRVLKPDGRLAIVECKKEEMSFGPPLHMRLSPEELENLIAKYGFEKINLVDLGYNYMIQFRKSYQK
2. VFHRFNEPGSRSGYSLYVPEYYDPDREWPLVMALHGGSGHGRLFLWSWLRDARARGAIVVAPTATGRTWALMGEDVDSPNLARILDEVRGHWRIDPSRLLLTGLSDGGTFCYVSGLTSDSPFTHLAPIAASFHPLLAGAADSARLRGLPIQIVHGRHDWMFPVEVARQAHEALVSAGADVSYREIADLSHSYPREANVALLDWL
3. MDKPVVRDAALLIFRAVLGVIFVAHGWEKLFISGVTKTTGQFSAWGVPQPKLSVWITSISELLGGAFLVVGLLTTFVAGALALLIAAAIYFVHLSSGFFTVENGIEFPLLIIVSLLVIVVFGSGRASVDGVLTRG

Completion:
1. failed
2. failed
3. failed

Prompt: Field request: protein production | item: MAASSLATQPAMKLAPDDLDSITATTLGHYQQVAEDFREGTRDHDVSQNIDALLRHIQGSAPFTVLDFGCGPGRDLQAFTRLGHVAIGLDGCERFAQMAREDSGCEVWQQDFLKLDLPAERFDGIFANAVLFHIPRQELPRVLKQLHASLKDGGVLFSSNPRGDNQEGWNGPRYGAYHDLAAWQALLTDAGFVELEHYYRPAGLPREQQPWLASVWRKA
Completion: failed
